Target: Human Calpain 2/NS1 (Homo sapiens, UniProt P17655)
Sequence (P17655 1-700): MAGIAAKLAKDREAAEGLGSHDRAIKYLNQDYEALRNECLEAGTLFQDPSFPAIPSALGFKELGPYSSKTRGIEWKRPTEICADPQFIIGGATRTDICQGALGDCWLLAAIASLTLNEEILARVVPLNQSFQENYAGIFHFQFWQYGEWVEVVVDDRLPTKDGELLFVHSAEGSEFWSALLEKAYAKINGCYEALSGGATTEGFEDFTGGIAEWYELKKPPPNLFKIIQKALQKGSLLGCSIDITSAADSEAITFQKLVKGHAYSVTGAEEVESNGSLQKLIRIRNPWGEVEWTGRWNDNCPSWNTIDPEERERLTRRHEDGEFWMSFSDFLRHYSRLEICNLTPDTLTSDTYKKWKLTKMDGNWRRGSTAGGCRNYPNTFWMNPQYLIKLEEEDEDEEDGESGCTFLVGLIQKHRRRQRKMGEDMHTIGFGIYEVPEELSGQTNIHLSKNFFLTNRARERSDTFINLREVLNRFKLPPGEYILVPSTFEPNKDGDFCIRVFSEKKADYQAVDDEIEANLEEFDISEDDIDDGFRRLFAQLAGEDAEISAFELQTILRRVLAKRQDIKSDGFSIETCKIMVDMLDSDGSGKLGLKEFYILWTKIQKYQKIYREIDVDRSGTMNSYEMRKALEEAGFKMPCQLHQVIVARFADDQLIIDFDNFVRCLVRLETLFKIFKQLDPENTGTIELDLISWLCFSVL
Sequence (P04632 1-268 partner): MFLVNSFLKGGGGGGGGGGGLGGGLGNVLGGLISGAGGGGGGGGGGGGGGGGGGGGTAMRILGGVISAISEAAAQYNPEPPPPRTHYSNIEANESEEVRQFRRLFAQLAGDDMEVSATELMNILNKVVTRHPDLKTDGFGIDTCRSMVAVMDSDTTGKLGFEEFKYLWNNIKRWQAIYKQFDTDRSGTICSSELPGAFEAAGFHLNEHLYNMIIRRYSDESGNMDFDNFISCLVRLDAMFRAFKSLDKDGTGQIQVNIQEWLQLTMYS
Assay: Calpain continuous fluorescence (FRET) inhibition assay
Conditions: Column B; SensoLyte 520 FRET substrate, pH 7.5, 25C
pIC50: −log10 of the molar value.
The entries below come with measured pIC50 values attached.

- COMPOUND: "CC(C)[C@@H]1NC(=O)/C=C/[C@@H](NC(=O)[C@@H](NC(=O)[C@H](Cc2ccc(O)cc2)NC(=O)OC(C)(C)C)C(C)C)COC(=O)[C@H](Cc2ccc(O)cc2)NC1=O [Compound 3]"
  RESULT: "> 5.52"
- COMPOUND: "CCCCCC/C=C\\CC(=O)N[C@@H](Cc1ccc(O)cc1)C(=O)N[C@H](C(=O)N[C@@H]1/C=C/C(=O)N[C@@H](C(C)C)C(=O)N[C@@H](Cc2ccc(OC)cc2)C(=O)OC1)C(C)C [Compound 11]"
  RESULT: "> 5.52"
- COMPOUND: "CC(C)[C@@H]1NC(=O)/C=C/[C@@H](NC(=O)CNC(=O)[C@H](Cc2ccc(O)cc2)NC(=O)OC(C)(C)C)COC(=O)[C@H](Cc2ccc(O)cc2)NC1=O [Compound 8]"
  RESULT: "< 5.00"

// pIC50 (Human Calpain 2/NS1 (Homo sapiens, UniProt P17655)) for CC(C)[C@@H]1NC(=O)/C=C/[C@@H](NC(=O)OC(C)(C)C)COC(=O)[C@H](C)NC1=O [Compound 15] = < 5.00

// pIC50 (Human Calpain 2/NS1 (Homo sapiens, UniProt P17655)) for CC(C)[C@@H]1NC(=O)/C=C/[C@@H](NC(=O)[C@@H](NC(=O)OCc2ccccc2)C(C)C)COC(=O)[C@H](Cc2ccc(O)cc2)NC1=O [Compound 9] = > 5.52

// pIC50 (Human Calpain 2/NS1 (Homo sapiens, UniProt P17655)) for CCCCCC/C=C\CC(=O)NCC(=O)N[C@H](C(=O)N[C@@H]1/C=C/C(=O)N[C@@H](C(C)C)C(=O)N[C@@H](Cc2ccc(O)cc2)C(=O)OC1)C(C)C [Compound 10] = > 5.52

// pIC50 (Human Calpain 2/NS1 (Homo sapiens, UniProt P17655)) for CC(C)[C@@H]1NC(=O)/C=C/[C@@H](NC(=O)[C@@H](NC(=O)[C@H](Cc2ccc(O)cc2)NC(=O)OC(C)(C)C)C(C)C)COC(=O)[C@H](C)NC1=O [Compound 17] = > 5.52
